MEASUREMENT_TARGET: human EP1 receptor (Homo sapiens, UniProt P34995)
Construct: expressed in transfected cells; host or cells: CHO-K1
ASSAY_TEXT: human EP1 calcium mobilisation assay
Type: cell-based
SETTINGS: human EP1, CHO-K1 cells, antagonism of PGE2; averages of a number of experiments; read-out: functional pKi value (converted)
Structures can show the parent of a compound that is named as a salt.
Quick reference: Ki of the listed items.

Record excerpt, results attached:
{"columns": ["COMPOUND", "Ki"],
 "data": [
  ["O=C(Nc1cccc(Cc2cc(Cl)ccc2OCc2ccccc2)n1)C1CCOCC1 [Example 14]", "≤ 316 nM"],
  ["CNCc1ccc2nc(-c3cccc(Cc4cc(Cl)ccc4OCC(C)C)n3)[nH]c2c1 [Example 52]", "≤ 316 nM"],
  ["O=C(Nc1cccc(Cc2cc(Cl)ccc2OCc2ccccc2)n1)C1CCCCC1 [Example 4]", "≤ 316 nM"],
  ["CC(C)COc1ccc(Cl)cc1Cc1cccc(-c2nc3c(ccc4nn[nH]c43)[nH]2)n1 [Example 25]", "≤ 316 nM"],
  ["CN1CCN(c2ccc3nc(-c4cccc(Cc5cc(Cl)ccc5OCc5ccccc5)n4)[nH]c3c2)CC1 [Example 26, Hydrochloride]", "≤ 10000 nM"],
  ["Fc1cccc2[nH]c(-c3cccc(Cc4cc(Cl)ccc4OCc4ccccc4)n3)nc12 [Example 32]", "≤ 10000 nM"],
  ["CC(C)COc1ccc(Cl)cc1Cc1cccc(-c2nc3ccccc3[nH]2)n1 [Example 44]", "≤ 316 nM"],
  ["CC(C)COc1ccc(Cl)cc1Cc1cccc(-c2nc3ccc(CN4CCCCC4)cc3[nH]2)n1 [Example 50, hydrochloride]", "≤ 10000 nM"]
]}

Record request: Ki value, item Fc1ccc2[nH]c(-c3cccc(Cc4cc(Cl)ccc4OCc4ccccc4)n3)nc2c1 [Example 36]
≤ 316 nM

Record request: Ki value, item CC(C)COc1ccc(Cl)cc1Cc1cccc(-c2nc3ccc(CN(C)C)cc3[nH]2)n1 [Example 51]
≤ 316 nM

Record request: Ki value, item O=C(Cc1ccccc1)Nc1cccc(Cc2cc(Cl)ccc2OCc2ccccc2)n1 [Example 2]
≤ 10000 nM

###

MEASUREMENT_TARGET: human EP1 receptor (Homo sapiens, UniProt P34995)
Construct: expressed in transfected cells; host or cells: CHO-K1
ASSAY_TEXT: human EP1 calcium mobilisation assay
Type: cell-based
SETTINGS: human EP1, CHO-K1 cells, antagonism of PGE2; averages of a number of experiments; read-out: functional pKi value (converted)
Counter-ions that a name gives are not always drawn.
VALUE_KIND: Ki

Record excerpt, results attached:
{"columns": ["COMPOUND", "Ki"],
 "data": [
  ["Cc1ccc2[nH]c(-c3cccc(Cc4cc(Cl)ccc4OCc4ccccc4)n3)nc2c1 [Example 29, Hydrochloride]", "≤ 10000 nM"],
  ["O=C(Nc1cccc(Cc2cc(Cl)ccc2OCc2ccccc2)n1)c1ccccc1 [Example 3]", "≤ 316 nM"],
  ["CC(C)COc1ccc(Cl)cc1Cc1cccc(NC(=O)c2ccc(CO)cc2)n1 [Example 62]", "≤ 10000 nM"],
  ["Fc1cc(Cl)ccc1COc1ccc(Cl)cc1Cc1cccc(-c2nc3cncnc3[nH]2)n1 [Example 20]", "≤ 316 nM"]
]}

Record request: Ki value, item CN(C)c1ccc2nc(-c3cccc(Cc4cc(Cl)ccc4OCc4ccccc4)n3)[nH]c2c1 [Example 27]
≤ 10000 nM

Record request: Ki value, item CC(C)(C)OC(=O)Nc1cccc(Cc2cc(Cl)ccc2OCc2ccc(Cl)cc2F)n1 [Example 61, Hydrochloride]
≤ 316 nM

Record request: Ki value, item Clc1ccc(OCc2ccccc2)c(Cc2cccc(-c3nc4ccc(N5CCOCC5)cc4[nH]3)n2)c1 [Example 28]
≤ 316 nM

Record request: Ki value, item Clc1ccc(OCc2ccccc2)c(Cc2cccc(-c3nc4cc(Cl)ccc4[nH]3)n2)c1 [Example 35, hydrochloride]
≤ 316 nM

Record request: Ki value, item Clc1ccc(OCc2ccccc2)c(Cc2cccc(-c3nc4cc5cn[nH]c5cc4[nH]3)n2)c1 [Example 39]
≤ 316 nM

Record request: Ki value, item NC(=O)c1cccc(Cc2cc(Cl)ccc2OCc2ccc(Cl)cc2F)n1 [Example 63]
≤ 10000 nM

Record request: Ki value, item CC(C)COc1ccc(Cl)cc1Cc1cccc(NC(=O)c2ccc(CN3CCN(C)CC3)cc2)n1 [Example 48]
≤ 10000 nM

###

Quick reference: Ki of the listed items.
MEASUREMENT_TARGET: human EP1 receptor (Homo sapiens)
Construct: expressed in transfected cells; host or cells: CHO-K1
Sequence (P34995 1-402): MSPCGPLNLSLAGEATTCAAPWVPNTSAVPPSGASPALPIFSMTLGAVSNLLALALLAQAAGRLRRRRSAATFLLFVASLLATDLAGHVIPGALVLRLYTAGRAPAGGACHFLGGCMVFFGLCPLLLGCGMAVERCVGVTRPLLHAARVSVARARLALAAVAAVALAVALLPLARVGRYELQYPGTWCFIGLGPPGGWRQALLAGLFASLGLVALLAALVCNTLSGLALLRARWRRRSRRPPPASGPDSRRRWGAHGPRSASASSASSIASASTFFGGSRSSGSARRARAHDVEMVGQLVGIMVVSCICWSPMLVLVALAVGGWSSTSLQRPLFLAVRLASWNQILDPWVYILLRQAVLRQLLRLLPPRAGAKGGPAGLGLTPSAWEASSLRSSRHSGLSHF
ASSAY_TEXT: human EP1 calcium mobilisation assay
Assay type: cell-based
SETTINGS: human EP1, CHO-K1 cells, antagonism of PGE2; averages of a number of experiments; read-out: functional pKi value (converted)
Experimental: Briefly, the antagonist properties of compounds are assessed by their ability to inhibit the mobilisation of intracellular calcium ([Ca^2+]i) in response to activation of EP1 or EP3 receptors by the natural agonist hormone prostaglandin E2 (PGE2). […] The amount of calcium produced is assessed using a calcium-sensitive fluorescent dye such as Fluo-4, AM and a suitable instrument such as a Fluorimetric Imaging Plate Reader (FLIPR). […]
Where a name gives a salt, the structure may show the parent alone.

Record excerpt, results attached:
{"columns": ["COMPOUND", "READING"],
 "data": [
  ["Fc1cc(Cl)ccc1COc1ccc(Cl)cc1Cc1cccc(-c2nc3ccccc3[nH]2)n1 [Example 19, Hydrochloride]", "≤ 316 nM"],
  ["CC(C)COc1ccc(Cl)cc1Cc1cccc(-c2nc3cc4cnn(C)c4cc3[nH]2)n1", "≤ 316 nM"],
  ["Clc1ccc(OCc2ccccc2)c(Cc2cccc(-c3nc4ccccc4[nH]3)n2)c1 [Example 34, hydrochloride]", "≤ 316 nM"],
  ["CC(C)COc1ccc(Cl)cc1Cc1cccc(-c2nc3ccc(CN4CCCC4)cc3[nH]2)n1 [Example 49, hydrochloride]", "≤ 10000 nM"],
  ["CC(C)(C)OC(=O)Nc1cccc(Cc2cc(Cl)ccc2OCc2ccc(Cl)cc2F)n1 [Example 60]", "≤ 10000 nM"]
]}

Notebook: pull reported Ki for human EP1 receptor (Homo sapiens), entry Clc1ccc(OCc2ccccc2)c(Cc2cccc(-c3ncc[nH]3)n2)c1 [Example 43, Hydrochloride]
≤ 316 nM

Notebook: pull reported Ki for human EP1 receptor (Homo sapiens), entry Clc1ccc(OCc2ccccc2)c(Cc2cccc(-c3nc4ncccc4[nH]3)n2)c1
≤ 316 nM

Notebook: pull reported Ki for human EP1 receptor (Homo sapiens), entry CC(C)NC(=O)c1cccc(Cc2cc(Cl)ccc2OCc2ccccc2)n1
≤ 316 nM

###

MEASUREMENT_TARGET: human EP3 receptor (Homo sapiens)
Construct: expressed in transfected cells; host or cells: CHO-K1
Sequence (P43115 whole entry): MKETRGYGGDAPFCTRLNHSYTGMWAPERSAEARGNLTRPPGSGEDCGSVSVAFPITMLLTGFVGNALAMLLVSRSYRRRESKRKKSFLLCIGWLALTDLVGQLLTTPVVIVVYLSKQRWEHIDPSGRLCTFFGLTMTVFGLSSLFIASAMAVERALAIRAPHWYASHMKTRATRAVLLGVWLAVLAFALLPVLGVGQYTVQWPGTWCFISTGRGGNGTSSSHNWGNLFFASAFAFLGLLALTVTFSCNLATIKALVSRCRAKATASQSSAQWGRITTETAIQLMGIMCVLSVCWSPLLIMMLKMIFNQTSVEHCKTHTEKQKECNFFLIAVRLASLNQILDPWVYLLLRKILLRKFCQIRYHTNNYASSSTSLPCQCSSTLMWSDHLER
ASSAY_TEXT: human EP3 calcium mobilisation assay
Assay type: cell-based
SETTINGS: human EP3, CHO-K1 cells, antagonism of PGE2; averages of a number of experiments; read-out: functional pKi value (converted)
Quick reference: Ki of the listed items.

{"columns": ["MOLECULE_SMILES", "VALUE_KIND", "READING"],
 "data": [
  ["CC(C)COc1ccc(Cl)cc1Cc1cccc(-c2nc3cc4cnn(C)c4cc3[nH]2)n1", "Ki", "≤ 1 µM"],
  ["O=C(Nc1cccc(Cc2cc(Cl)ccc2OCc2ccccc2)n1)C1CCOCC1", "Ki", "≤ 3.16 µM"]
]}

Next:
Record request: Ki value, item Clc1ccc(OCc2ccccc2)c(Cc2cccc(-c3nc4cc5cn[nH]c5cc4[nH]3)n2)c1
≤ 3.16 µM
